meta.source: patent US20260356851A1

Target: pERK1/2 (Thr202/Tyr204), PANC-1 (KRAS G121D) (Homo sapiens, UniProt P01116, G12D)
Construct: pERK1/2 HTRF read-out
Sequence (P01116 1-188 isoform P01116-2 G12D): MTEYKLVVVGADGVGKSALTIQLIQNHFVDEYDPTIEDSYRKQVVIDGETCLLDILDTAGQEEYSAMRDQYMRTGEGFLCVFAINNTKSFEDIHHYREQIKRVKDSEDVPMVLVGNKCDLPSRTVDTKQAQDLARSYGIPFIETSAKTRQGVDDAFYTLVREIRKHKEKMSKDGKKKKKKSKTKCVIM
Assay: Assay of intracellular pERK1/2 (Thr202/Tyr204) phosphorylation in PANC-1 cells (KRAS G12D)
Assay type: cell-based
Settings: pERK1/2, 2 days, read-out: PANC-1 (KRAS G12D) IC50
pIC50: −log10 of the molar value.
In this scheme, each record receives a class according to its pIC50; the ranges are range 1 = under 7, range 2 = from 7 up to 8, range 3 = 8 and over

Q: Consider Cc1cc(N)cc(-c2nc3c4c(nc(OC[C@@]56CCCN5C[C@H](F)C6)nc4c2F)N(C(C)c2cccnc2N)CCCO3)c1C(F)(F)F (single isomer, unassigned) . To which pIC50 class does it belong?
A: range 1

Q: Consider [2H]C1([2H])CC[C@@]2(C([2H])([2H])Oc3nc4c5c(nc(-c6cc(N)cc(Cl)c6C(F)(F)F)c(F)c5n3)OCCN4C(C)c3cccnc3N)C[C@@H](F)CN12 (stereo partly drawn) . To which pIC50 class does it belong?
A: range 3

Q: Consider Cc1nc(N)cc(-c2nc3c4c(nc(OC[C@@H]5CCCN5C)nc4c2F)N(C(C)c2cccnc2N)CCO3)c1C(F)(F)F (stereo partly drawn) . To which pIC50 class does it belong?
A: range 1

Q: Consider C[C@H](c1cccnc1N)N1c2nc(OC[C@@]34CCCN3C[C@H](F)C4)nc3c(F)c(-c4c5ccccc5cc5[nH]ncc45)nc(c23)O[C@@H]2CCC[C@@H]21 . To which pIC50 class does it belong?
A: range 1

Q: Consider Cc1c(C(F)(F)F)c(-c2nc3c4c(nc(OCC5(CN(C)C6CC6)CC5)nc4c2F)N(C(C)c2cccnc2N)[C@@H](C)CO3)c2cn[nH]c2c1F (stereo partly drawn) . To which pIC50 class does it belong?
A: range 2

Q: Consider Cc1cc(N)cc(-c2nc3c4c(nc(OCC56CCCN5CCC6)nc4c2F)N(C(C)c2cccnc2N)CCO3)c1C(F)(F)F (stereo not drawn) . To which pIC50 class does it belong?
A: range 2

Q: Consider Cc1ccnc(N)c1C(C)N1CCOc2nc(-c3cc(N)c(F)c(C)c3C(F)(F)F)c(F)c3nc(OC[C@@]45CCCN4C[C@H](F)C5)nc1c23 (single isomer, unassigned) [Compound 257] . To which pIC50 class does it belong?
A: range 2

Q: Consider CC(c1cccnc1N)N1CCOc2nc(-c3cc(O)cc(F)c3C3CC3)c(F)c3nc(OC[C@@H]4CC(F)(F)CN4C)nc1c23 (single isomer, unassigned) [Compound 48] . To which pIC50 class does it belong?
A: range 1

Q: Consider CC(c1cccnc1N)N1CCOc2nc(-c3cc(N)cc(Cl)c3C(F)(F)F)c(F)c3nc(OC[C@@]45CCCN4C[C@H](F)C5)nc1c23 (single isomer, unassigned) [Compound 71] . To which pIC50 class does it belong?
A: range 3

Q: Consider Cc1cc(N)nc(-c2nc3c4c(nc(OC[C@@]56CCCN5C[C@H](F)C6)nc4c2F)N(C(C)c2cccnc2N)[C@@H](C)CO3)c1C(F)(F)F (stereo partly drawn) . To which pIC50 class does it belong?
A: range 3

Q: Consider [2H]C([2H])(Oc1nc2c3c(nc(-c4cc(O)cc(Cl)c4C4CC4)c(F)c3n1)OCCN2[C@@H](C)c1cccnc1N)[C@@H]1C[C@@H](F)CN1C([2H])([2H])[2H] (single isomer, unassigned) . To which pIC50 class does it belong?
A: range 2

Q: Consider Cc1c(C(F)(F)F)c(-c2nc3c4c(nc(OC[C@@]56CCCN5C[C@H](F)C6)nc4c2F)N(C(C)c2cccnc2N)[C@@H](C)CO3)c2c(Cl)n[nH]c2c1F (stereo partly drawn) [Compound 381] . To which pIC50 class does it belong?
A: range 3

Q: Consider Cc1cc(N)cc(-c2nc3c4c(nc(OC[C@]56CCCN5[C@@H](CO)CC6)nc4c2F)N([C@H](C)c2cccnc2N)CCO3)c1C(F)(F)F (single isomer, unassigned) . To which pIC50 class does it belong?
A: range 1

Q: Consider CC(c1cccnc1N)N1CCOc2nc(-c3cc(N)c(F)c(Cl)c3Cl)c(F)c3nc(OC[C@@]45CCCN4C[C@H](F)C5)nc1c23 (stereo partly drawn) . To which pIC50 class does it belong?
A: range 2

Q: Consider [2H]C([2H])(Oc1nc2c3c(nc(-c4cc(N)cc(Cl)c4C(F)(F)F)c(F)c3n1)OCCN2C(C)c1cccnc1N)[C@@H]1CCC([2H])([2H])N1C([2H])([2H])[2H] (stereo partly drawn) . To which pIC50 class does it belong?
A: range 2

Q: Consider CC(c1cccnc1N)N1CCOc2nc(-c3cc(O)cc4ccc(F)c(F)c34)c(F)c3nc(OCC4(CN(C)C)CC4)nc1c23 (stereo not drawn) . To which pIC50 class does it belong?
A: range 1

Q: Consider CC(=O)Nc1ncccc1C(C)N1CCOc2nc(-c3cc(N)c(F)c(C)c3C(F)(F)F)c(F)c3nc(OC[C@@]45CCCN4C[C@H](F)C5)nc1c23 (stereo partly drawn) . To which pIC50 class does it belong?
A: range 1

Q: Consider Cc1c(F)c(N)cc(-c2nc3c4c(nc(OC[C@@]56CCC(=O)N5C[C@H](F)C6)nc4c2F)N(C(C)c2cccnc2N)CCO3)c1C(F)(F)F (stereo partly drawn) . To which pIC50 class does it belong?
A: range 1

* * *

Consider the following compounds; for each one, report its pIC50.
Biological target: pERK1/2 (Thr202/Tyr204), NCI-1H358 (KRAS G12C) (Homo sapiens, UniProt P01116, G12C)
Construct: pERK1/2 HTRF read-out
Sequence (P01116 1-188 isoform P01116-2 G12C): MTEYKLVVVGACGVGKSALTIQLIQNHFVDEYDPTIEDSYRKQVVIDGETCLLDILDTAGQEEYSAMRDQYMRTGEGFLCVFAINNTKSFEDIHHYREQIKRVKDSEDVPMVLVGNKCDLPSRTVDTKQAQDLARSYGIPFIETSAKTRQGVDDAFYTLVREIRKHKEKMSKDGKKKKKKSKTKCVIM
Assay: Assay of intracellular pERK1/2 (Thr202/Tyr204) phosphorylation in NCI-H358 cells (KRAS G12C)
Format: cell-based
Conditions: pERK1/2, 2 days, read-out: NCI-H358 (KRAS G12C) IC50
Convention used: pIC50 is expressed as -log10 of the molar concentration.

Q: Provide one value: measured pIC50 of Cc1c(F)c(N)cc(-c2nc3c4c(nc(OC[C@@]56CCCN5C/C(=C\F)C6)nc4c2F)N(C(C)c2cccnc2N)CCO3)c1C(F)(F)F (stereo partly drawn)
A: 10.00

Q: Provide one value: measured pIC50 of Cc1c(F)c(N)cc(-c2nc3c4c(nc(OC[C@@]56CCCN5C[C@H](F)C6)nc4c2F)N([C@H](C)c2cc(F)cnc2N)[C@@H](C)CO3)c1C(F)(F)F
A: 9.70

Q: Provide one value: measured pIC50 of [2H]C1([2H])CC[C@@]2(C([2H])([2H])Oc3nc4c5c(nc(-c6cc(N)cc(C)c6C(F)(F)F)c(F)c5n3)OCCN4C(C)c3cccnc3N)C[C@@H](F)CN12 (single isomer, unassigned) [Compound 116]
A: 8.40

* * *

Consider the following compounds; for each one, report its pIC50.
Target: pERK1/2 (Thr202/Tyr204), PANC-1 (KRAS G121D) (Homo sapiens, UniProt P01116, G12D)
Construct: pERK1/2 HTRF read-out
Experiment: Assay of intracellular pERK1/2 (Thr202/Tyr204) phosphorylation in PANC-1 cells (KRAS G12D)
Assay type: cell-based
Details: pERK1/2, 2 days, read-out: PANC-1 (KRAS G12D) IC50
Convention used: pIC50 is expressed as -log10 of the molar concentration.

Q: Provide one value: measured pIC50 of Cc1cc2[nH]ncc2c(-c2nc3c4c(nc(OC[C@@]56CCCN5C[C@H](F)C6)nc4c2F)N(C(C)c2cccnc2N)CCO3)c1C (stereo partly shown)
A: 6.49

Q: Provide one value: measured pIC50 of Cc1c(F)c(N)cc(-c2nc3c4c(nc(OC[C@@]56CCCN5C[C@@]5(CC5(F)F)C6)nc4c2F)N(C(C)c2cccnc2N)CCO3)c1C(F)(F)F (single isomer, unassigned; diastereomer 1)
A: 9.10

Q: Provide one value: measured pIC50 of CCC(c1cccnc1N)N1CCOc2nc(-c3cc(N)c(F)c(F)c3C(F)(F)F)c(F)c3nc(OC[C@@]45CCCN4C[C@H](F)C5)nc1c23 (single isomer, unassigned) [Compound 216]
A: 7.32

Q: Provide one value: measured pIC50 of [2H]C1([2H])CN(C(C)c2cccnc2N)c2nc(OC[C@@]34CCCN3C[C@H](F)C4)nc3c(F)c(-c4cc(N)cc(C)c4C(F)(F)F)nc(c23)O1 (stereo partly shown) [Compound 140]
A: 9.00

Q: Provide one value: measured pIC50 of Cc1c(C(F)(F)F)c(-c2nc3c4c(nc(OC[C@@]56CCCN5C[C@H](F)C6)nc4c2F)N(C(C)c2cccnc2N)[C@@H](C)CO3)c2c(Cl)n[nH]c2c1F (single isomer, unassigned) [Compound 382]
A: 8.70

Q: Provide one value: measured pIC50 of Cc1cc2[nH]ncc2c(-c2nc3c4c(nc(OC[C@@]56CCCN5C[C@H](F)C6)nc4c2F)N(C(C)c2cccnc2N)[C@@H](C)CO3)c1C1CC1 (stereo partly shown)
A: 9.52

Q: Provide one value: measured pIC50 of CC(c1cccnc1N)N1CCOc2nc(-c3cc(N)cc(F)c3C(F)(F)F)c(F)c3nc(OC[C@@H]4C[C@@H](F)CN4C)nc1c23 (single isomer, unassigned) [Compound 92]
A: 7.24

Q: Provide one value: measured pIC50 of Cc1c(F)c(N)cc(-c2nc3c4c(nc(OC[C@@]56CCCN5C/C(=C\F)C6)nc4c2F)N(C(C)c2cccnc2N)CCO3)c1C(F)(F)F (stereo partly shown)
A: 9.00

Q: Provide one value: measured pIC50 of CC(c1cccnc1N)N1c2nc(OC[C@@]34CCCN3C[C@H](F)C4)nc3c(F)c(-c4cc(O)cc(Cl)c4C(F)(F)F)nc(c23)OC[C@@H]1C (stereo partly shown)
A: 8.22

Q: Provide one value: measured pIC50 of [2H]C([2H])(Oc1nc2c3c(nc(-c4cc(N)c(F)c(C)c4C(F)(F)F)c(F)c3n1)OCCN2C(C)c1cccnc1N)[C@@H]1C[C@@H](F)CN1C([2H])([2H])[2H] (stereo partly shown)
A: 8.15

Q: Provide one value: measured pIC50 of CC(c1cccnc1N)N1CCOc2nc(-c3cc(N)cc(Cl)c3C3CC3)c(F)c3nc(OC[C@@]45CCCN4C[C@H](F)C5)nc1c23 (single isomer, unassigned) [Compound 74]
A: 8.40

Q: Provide one value: measured pIC50 of Cc1c(F)c(N)cc(-c2nc3c4c(nc(OC[C@]56CCCN5C[C@H](F)C6)nc4c2F)N(C(C)c2cccnc2N)CCO3)c1C(F)(F)F (stereo partly shown)
A: 8.52

Q: Provide one value: measured pIC50 of Cc1cc(N)cc(-c2nc3c4c(nc(OC[C@@]56CCCN5C[C@H](F)C6)nc4c2F)N(C(C)c2cccnc2N)CCO3)c1C(F)(F)F (single isomer, unassigned) [Compound 62]
A: 7.26

Q: Provide one value: measured pIC50 of CC(c1cccnc1N)N1CCOc2nc(-c3cc(O)cc(Cl)c3C3CC3)c(F)c3nc(OC[C@@H]4CC(F)(F)CN4C)nc1c23 (single isomer, unassigned) [Compound 56]
A: 6.87

Q: Provide one value: measured pIC50 of CC(c1cccnc1N)N1CCOc2nc(-c3cc(N)cc(Cl)c3C3CC3)c(F)c3nc(OC[C@@]45CCCN4C[C@H](F)C5)nc1c23 (single isomer, unassigned) [Compound 75]
A: 7.40
